I'd appreciate it if you could supply Growth Rate values for the items below.
- Test system: U2OS
- assay_name: Incucyte cell viability with U2OS; further: filed as whole numbers so only -1 and 0 and 1 occur
- Type: toxicity, cell-based
- conditions: human, 18 h, 10 µM, compound concentration 10 uM, replicate number 1, timepoint 18 hours
Answers are plain numbers.

Below are 5 compounds. Give each one its Growth Rate.
1. C[C@]1(C(=O)N(CCCC(=O)O)Cc2cccc(Cl)c2)CCN1C(=O)c1csc2ccccc12
2. C[C@H](N)COC(=O)[C@@H](CCCCN)NC(=O)Cc1c(-c2ccc3ccccc3c2)[nH]c2c1ccc1ccccc12
3. Cc1cc(NC(=O)c2cccc(S(F)(F)(F)(F)F)c2)cc(-n2ccn3nc(-c4cccnc4)cc23)c1
4. COC(=O)/C=C/c1cccc(N(Cc2ccc(-c3ccc(N(C)C)cc3)cc2)C(=O)C2CCCCC2)c1
5. COc1cc(-c2cn([C@H]3CCc4ccccc4N(CC(F)(F)F)C3=O)nn2)ccc1-n1ccc(C)n1

1. 1
2. 1
3. 0
4. 1
5. 0

Below are 3 compounds. Give each one its Growth Rate.
1. CCCOc1ccc([C@H]2[C@H](C(=O)O)[C@@H](c3ccc4c(c3)OCO4)CN2CC(=O)Nc2c(CC)cccc2CC)cc1
2. COc1cc2ncnc(Nc3ccc(F)c(Cl)c3)c2cc1OCCCN1CCOCC1
3. Cl.Clc1ccc(CCCOCCCN2CCCCC2)cc1 [PITOLISANT HYDROCHLORIDE]

1: 0; 2: 0; 3: 1

Below are 3 compounds. Give each one its Growth Rate.
1. CO[C@@H](C)c1c(Nc2ccc([C@H](N(C)C(=O)C3CCS(=O)(=O)CC3)C(F)(F)F)cc2)cnc2cc(Cl)nn12
2. S=C=Nc1cccc(NC(=S)NCCCCNC(=S)Nc2cccc(N=C=S)c2)c1
3. Cn1c(CNc2cccc(C(=O)NCc3ccccc3C(F)(F)F)c2)nnc1-c1ccncc1

1: 1; 2: 0; 3: 0

Below are 6 compounds. Give each one its Growth Rate.
1. CC(C)N(CCCNC(=O)Nc1ccc(C(C)(C)C)cc1)C[C@H]1O[C@@H](n2cc(Br)c3c(N)ncnc32)[C@H](O)[C@@H]1O
2. Cc1ccccc1C(=O)Nc1ccc(C(=O)N2CCCC(O)c3cc(Cl)ccc32)c(C)c1 (configuration not stated)
3. CCCSc1nc(N[C@@H]2C[C@H]2c2ccc(F)c(F)c2)c2nnn([C@@H]3C[C@H](OCCO)[C@@H](O)[C@H]3O)c2n1
4. O=C(c1cc2c(cc1F)OC(c1ccc(F)cc1)(c1ccc(Cl)cc1Cl)O2)N1CCOCC1 (configuration not stated)
5. CCNC(=O)c1cc2c(N3CCOC[C@@H]3C)ccnc2n1C
6. C[C@H](NC[C@H](O)CP(=O)(O)CC1CCCCC1)c1ccc(Cl)c(Cl)c1.Cl

1. 1
2. 0
3. 0
4. 0
5. 0
6. 1

Below are 7 compounds. Give each one its Growth Rate.
1. CN(C)C(=O)Cn1cc(-c2nc([C@@](C)(c3ccc(-c4cnc(N)nc4)cc3)C3CC3)no2)cn1
2. COc1cc2ncn(-c3cc(OCc4ccccc4C(F)(F)F)c(C(N)=O)s3)c2cc1OC [GW843682X]
3. CC(C)NC(=O)N1CC[C@H](NC2=Nc3cc(F)ccc3N(CC(F)F)c3ccc(Cl)cc32)C1
4. COC(=O)C(Cc1ccc(OCCn2c(=O)sc3cc(C(=O)c4ccccc4)ccc32)cc1)C(=O)OC
5. C[C@H](c1ccc(F)cc1)N(Cc1cccc(C(=O)O)c1)C(=O)c1cnc2ccccc2c1
6. CNC(=O)c1ccc(Nc2ncc(C(F)(F)F)c(NCc3nccnc3N(C)S(C)(=O)=O)n2)cc1
7. CCOc1cn(-c2ccc(F)cc2C)nc1C(=O)Nc1ccc(Oc2ccnc3cc(OC)c(OC)cc23)c(F)c1

1: 0; 2: 0; 3: 0; 4: 1; 5: 0; 6: 0; 7: 1

Below are 2 compounds. Give each one its Growth Rate.
1. COc1ccc(S(=O)(=O)N2c3ccc(Cl)cc3[C@](O)(c3ccccc3Cl)[C@@H]2C(=O)N2CCC[C@H]2C(N)=O)cc1OC
2. Cc1cc(C(C)(C)C)c(O)c(C)c1CC1=NCCN1.Cl [OXYMETAZOLINE HYDROCHLORIDE]

1: 0; 2: 0

Below are 6 compounds. Give each one its Growth Rate.
1. COc1cc(Nc2nccc(-c3cnn4nc(OC)ccc34)n2)cc(C(F)(F)F)c1
2. O=c1cc(N2CCOCC2)oc2c(-c3cccc4c3sc3ccccc34)cccc12
3. C[C@]1(O)C[C@@H](c2nc(-c3ccc4ccc(-c5ccccc5)nc4c3)c3c(N)nccn32)C1
4. O=C(O)CC/C=C\C[C@@H]1CO[C@H](c2ccccc2Cl)O[C@@H]1c1ccccc1O
5. CC(C)Oc1ccccc1C(=O)Nc1ccccc1C(=O)Nc1cccc(S(=O)(=O)C(F)(F)F)c1
6. CC(C)(O)c1ccccc1CC[C@@H](SCC1(CC(=O)[O-])CC1)c1cccc(/C=C/c2ccc3ccc(Cl)cc3n2)c1.[Na+] [MONTELUKAST SODIUM]

1. 0
2. 0
3. 0
4. 0
5. 1
6. 1
